- systemTested: Androgen receptor (Homo sapiens)
- assayMethodText: qHTS assay to identify small molecule antagonists of the androgen receptor (AR) signaling pathway using the MDA cell line in the presence of 0.5 nM R1881 (AID 1259243); also: nearly all actives have a fitted effect of over 50% in size
- conditionDetails: MDA-kb2 MMTV-luciferase, R1881 0.5 nM, 16 h; series mostly up to 92.4 µM
Records with an inconclusive call do not appear. The source made the active and inactive calls. Calls follow the shape of the dose curve; as a rule, active = well fitted inhibition curve with a large enough effect in the repeat runs; inconclusive = weak or mixed curves; inactive = no such curve, though single readings can be large or run the other way.
Pick from active, inactive when you respond.

Use the examples below as a reference point.
- compound: "CC(=O)N(CC(=O)N(C)C)c1ccccc1"
  assignedClass: "inactive"
- compound: "Cc1cc(O)ccc1N"
  assignedClass: "active"
- compound: "O=C(O)c1cccc(N(Cc2cccnc2)c2ccc(OC(F)F)c(OC(F)F)c2)c1"
  assignedClass: "active"
- compound: "COC(=O)CSc1cc(N=c2sc(=O)n3n2CCCC3)c(F)cc1Cl"
  assignedClass: "inactive"
- compound: "C=C(C)C(=O)OCCOc1ccccc1"
  assignedClass: "inactive"
- compound: "CC(=O)N(O)CCCCCNC(=O)CCC(=O)N(O)CCCCCNC(=O)CCC(=O)N(O)CCCCCN"
  assignedClass: "inactive"

Data request: Please let me know the test result on file for NC(N)=NN=C(/C=C/c1ccc([N+](=O)[O-])o1)/C=C/c1ccc([N+](=O)[O-])o1 .
Data returned: active

Data request: Name the outcome recorded for COc1ccc(C(C)=O)cc1 in the assay.
Data returned: inactive

----------
- assayMethodText: A CellTox Green Cytotoxicity Assay to monitor cytotoxicity in HEK293 cells - 0 hour (AID 1224869); also: nearly all actives have a fitted effect of over 50% in size
- conditionDetails: CellTox Green fluorescence; series mostly up to 76.8 µM
Activity calls are given as the source filed them. The call rests on the fitted dose curve; in most records, active means well fitted activation curve with a large enough effect in the repeat runs; inconclusive means weak or mixed curves; inactive means flat fitted curve, though single readings scatter.
reportedEndpoint: cytotoxicity

Before answering, review these 4 worked examples.
- compound: "CC(=O)N(CC(=O)N(C)C)c1ccccc1"
  reportedEndpoint: "cytotoxicity"
  experimentalResult: "inactive"
- compound: "CC[C@H](C)[C@H](N)C(=O)O"
  reportedEndpoint: "cytotoxicity"
  experimentalResult: "inactive"
- compound: "Cc1nc2ccccc2n1Cc1ccc(Cl)cc1"
  reportedEndpoint: "cytotoxicity"
  experimentalResult: "inactive"
- compound: "SC1CCCC1"
  reportedEndpoint: "cytotoxicity"
  experimentalResult: "inactive"

Please give cytotoxicity for each item listed below.
1. CCC(=O)OC(C)(C)C1CC=C(C)CC1 (stereo not given)
2. Cc1ccc(C(C)c2ccc(C)c(C)c2)cc1C

Data returned:
1. inactive
2. inactive

Provide reported cytotoxicity for each item, in the same order as listed.
1. NCCCOCCOCCOCCCN
2. NC1CCN(c2nc3c(cc2F)c(=O)c(C(=O)O)cn3-c2ccc(F)cc2F)C1 (stereo not given)
3. CC(C)CCCC(C)CCO (stereo not given)
4. Cc1ccc(C(=O)C(C)CN2CCCCC2)cc1 (stereo not given)
5. COc1ccc2[nH]c(S(=O)Cc3ncc(C)c(OC)c3C)nc2n1 (stereo not given)
6. COCCCCCCCCOCCC[Si](C)(O[Si](C)(C)C)O[Si](C)(C)C

Data returned:
1: inactive; 2: inactive; 3: inactive; 4: inactive; 5: inactive; 6: inactive

----------
- assayMethodText: qHTS assay for identifying genotoxic compounds that show differential cytotoxicity against isogenic chicken DT40 cell lines with known DNA damage response pathways - Rad54/Ku70 mutant cell line (AID 743015); also: nearly all actives have a fitted effect of over 60% in size
- conditionDetails: DT40 Rad54/Ku70 mutant viability, CellTiter-Glo, 40 h; series mostly up to 66.8 µM
Records with an inconclusive call do not appear. The source made the active and inactive calls. The call rests on the fitted dose curve; in most records, active means well fitted cell-killing curve with a large enough effect in the repeat runs; inconclusive means weak or mixed curves; inactive means no such curve, though single readings can be large or run the other way.
Parameter call: string, one of active, inactive

Data request: Would you mind telling me which call this test gave CCCCOc1cc(C(=O)OCCN(CC)CC)ccc1N ?
Data returned: active
